System: HepG2 cells
assayProtocol: cells
conditionDescription: Homo sapiens, HepG2, 24 h, read-out: HepG2 IC50, 3. measurement, MTT, 24 h, single measurement 3
assayMetric: pIC50
Scale explanation: pIC50 corresponds to minus log10 of a concentration expressed in moles per litre.

- compound: "COc1ccc2cc3[n+](cc2c1OCc1cccc(Br)c1)CCc1cc2c(cc1-3)OCO2 [16f, 9-O-(3-brombenzyl)berberine chloride]"
  pIC50: 4.98
- compound: "COc1ccc2cc3[n+](cc2c1OCc1ccc(C)cc1)CCc1cc2c(cc1-3)OCO2 [16d, 9-O-(4-methylbenzyl)berberine chloride]"
  pIC50: 4.91
- compound: "COc1ccc2cc3[n+](cc2c1OCc1ccccc1Br)CCc1cc2c(cc1-3)OCO2 [16e, 9-O-(2-brombenzyl)berberine chloride]"
  pIC50: 4.92

## Input What pIC50 value was documented for this compound, COc1ccc2cc3[n+](cc2c1OCc1ccc(Cl)cc1)CCc1cc2c(cc1-3)OCO2 [16i, 9-O-(4-chlorbenzyl)berberine chloride] ?
## Output 4.75
